// data source = ChEMBL document CHEMBL1201862

# MEASURED_ON: Melanin-concentrating hormone receptor 1 (Homo sapiens, UniProt Q99705)
# Sequence (Q99705 whole entry): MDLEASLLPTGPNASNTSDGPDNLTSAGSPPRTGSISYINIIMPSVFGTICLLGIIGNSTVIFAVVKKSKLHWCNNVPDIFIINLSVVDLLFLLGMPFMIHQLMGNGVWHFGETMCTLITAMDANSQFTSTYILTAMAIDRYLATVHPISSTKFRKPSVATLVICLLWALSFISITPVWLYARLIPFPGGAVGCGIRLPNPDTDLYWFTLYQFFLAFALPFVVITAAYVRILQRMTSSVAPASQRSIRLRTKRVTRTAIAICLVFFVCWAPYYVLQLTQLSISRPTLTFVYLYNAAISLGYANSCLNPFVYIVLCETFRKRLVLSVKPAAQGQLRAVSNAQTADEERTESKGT
# TEST_DETAILS: Late-stage fluorescence-based counterscreen for antagonists of the G-protein coupled receptor 7 (GPR7): cell-based dose response assay to identify antagonists of the melanin-concentrating hormone receptor 1 (MCHR1) Set 6.
# Format: functional
The source made the active and inactive calls. Rule as the data show it: active = IC50 of 10 µM or less and inactive = more.

MOLECULE: O=c1c(-c2ccc(F)c(F)c2)c(Br)cnn1Cc1cccc2ccccc12
IC50: 0.686 µM (active)
//
MOLECULE: CC(C)(C#N)c1c(Cl)cnn(Cc2cccc3ccccc23)c1=O
IC50: 2.5 µM (active)
//
MOLECULE: COc1ccc(C(C#N)c2c(Cl)cnn(Cc3cccc4ccccc34)c2=O)c(F)c1 (centres undefined)
IC50: 0.198 µM (active)
//
MOLECULE: COc1ccc(Oc2c(Cl)cnn(Cc3ccccc3[N+](=O)[O-])c2=O)cc1
IC50: 1.41 µM (active)
